Response for assorted binders
Target: T1, Rhesus macaque CD4-HIS (Acro Biosystems, Cat. CD4-C52H7) (rhesus macaque, UniProt P16003 26-390)
T1 construct: Bought reagent; also called Rhesus CD4; rhesus CD4-HIS; not shown: His tag
T1 sequence (P16003 26-390 limits assumed): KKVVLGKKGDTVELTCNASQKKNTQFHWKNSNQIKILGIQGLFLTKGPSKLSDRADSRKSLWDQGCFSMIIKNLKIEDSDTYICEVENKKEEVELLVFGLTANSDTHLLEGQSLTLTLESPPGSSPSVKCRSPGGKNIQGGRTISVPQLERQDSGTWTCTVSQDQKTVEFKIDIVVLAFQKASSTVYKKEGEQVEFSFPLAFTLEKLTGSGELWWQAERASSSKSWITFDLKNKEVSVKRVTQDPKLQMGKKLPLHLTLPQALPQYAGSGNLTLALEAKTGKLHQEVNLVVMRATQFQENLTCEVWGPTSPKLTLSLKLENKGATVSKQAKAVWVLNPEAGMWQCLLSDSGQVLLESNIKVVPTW
Test: BLI Octet, mAb on anti-mouse Fc sensor, rhesus CD4-HIS 25-100 nM, 1:1 global fit;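 further: purified antibodies captured at 10 µg/mL, rhesus CD4 analyte run as a three-concentration serial dilution, irrelevant antibody as reference control, one kinetic constant set per antibody from global fitting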
Answer with a bare number; do not write a unit.

Some solved cases for reference:
binder	meas-value
75110_01J09A (antibody, V domains shown, Tested as antibody purified from AlivaMab Mouse hybridoma supernatant (captured by anti-mouse IgG Fc)) VH: EVQLVESGGGLVQPGGSLRLSCVASGFTFSSYWMSWVRQAPGKGLEWVANTKEDGSDKYYVDSVKGRFTICRDNAKNSLYLQMNSLRAEDTAVYYCAREGGQWLALDYWGQGTLVTVSS VL: DIQMTQSPSSVSASVGDRVTINCRASQGISSWLAWYQQKPGKAPNLLIFGASSLQSGVPSRFSGSGFGTDFSLTITTLQPEDFATYHCQQANSFPWTFGQGTKVEIK	0.17
75110_01G11A (antibody, V domains shown, Tested as antibody purified from AlivaMab Mouse hybridoma supernatant (captured by anti-mouse IgG Fc)) VH: EVQLVESGGGLVQPGGSLRLSCAASGFTFSSYDMHWVRQATGKGLEWVSTIGTAGDTYYPGSVKGRFTISRENARNSLFLQMNSLRAGDTAVYYCARGGDYYYGMDVWGQGTTVTVSS VL: EIVLTQSPGTLSLFPGERATLSCRASQNTYSSYLAWYQQKPGQAPRLLIYGASNRATGIPDRFSGSGSGTDFTLTISRLEPEDFAVYYCQQHGTSPFTFGPGTKVDIK	0.03

Challenge: Need Response of 75110_03B16A (antibody, V domains shown, Tested as antibody purified from AlivaMab Mouse hybridoma supernatant (captured by anti-mouse IgG Fc)) VH: EVQLVESGGGLVQPGGSLRLSCAASGFTFSSYWMSWVRQAPGKGLEWVANINEDGSEKNYVDSVKGRFTISRDNAKNSLCLQLNSLRAEDTAVYHCAREGGQWLALDYWGQGTLVTVSS VL: DIQMTQSPSSVSASVGDRVNITCRASQGIRSWLAWYQQKPGKTPKLLICGASSLQSGVPSRFSGSGSGTDFTLTISSLQPEDFATYYCQQANSFPWTFGQGTTVEIK , thanks.
Response given: 0.19

Challenge: Need Response of 75110_02E08A (antibody, V domains shown, Tested as antibody purified from AlivaMab Mouse hybridoma supernatant (captured by anti-mouse IgG Fc)) VH: QVQLQESGPGLVKPSETLSLTCTVSGGSISTYYWTWIRQPAGKGLEWIGRVYTSGDTNYNPSLKSRVAMSLDTSKNQFSLKLSSVTAADTAVYYCARDSGALYSWNYGDAFDIWGQGTMVTVSS VL: DIQMTQSPSAMSASVGDRVTITCRASQDISNYLAWFQQKPGKVPKRLIYAASSLQSGVPSRFSGSGSGTEFTLTISSLQPEDFATYYCLQHNSYPRTFGQGTKVEIK , thanks.
Response given: 0.04

Challenge: Need Response of 75110_03I08A (antibody, V domains shown, Tested as antibody purified from AlivaMab Mouse hybridoma supernatant (captured by anti-mouse IgG Fc)) VH: QVQLQESGPGLVKPSETLSLTCTVSGGSISSYYWSWIRQPPGKGLEWIGYIYYSGSTNYNPSLKSRVTISVDTSKNQFSLKLSSVTAADTAVYYCAREGEQWFYGLDVWGQGTTVTVSS VL: EIVLTQSPGTLSLSPGERATLSCRASQSVSSTYLAWYQQKPGQAPRLLIYGSSSRATGIPDRFSGSGSGTDFTLTISRLEPEDFAVYYCQQYGNSFPITFGQGTRLEIK , thanks.
Response given: 0.04

Challenge: Need Response of 75110_04K10A (antibody, V domains shown, Tested as antibody purified from AlivaMab Mouse hybridoma supernatant (captured by anti-mouse IgG Fc)) VH: EVQLVESGGGLVQPGGSLRLSCAASGFTFSSYWMSWVRQAPGKGLEWVANINQDGSEKYYVDSVKGRFTISRDNAKNSLYLQLNSLRAEDTAMYYCAREGGQWLSLDYWGQGTLVTVSS VL: DIQMTQSPSSVSASVGDRVTITCRASQGISSWLAWYQQKPGKAPKVLIYGVSSFQSGVPSRFSGSGSGTDFILTISSLQPEDFATYYCQQANSFPWTFGQGTKVEIK , thanks.
Response given: 0.17
